Examples of binders with documented ECL signal follow.
Biological target: T1, rHuman Erythropoietin R/Fc Chimera, CF (R&D Systems Cat#963-ER) (human, UniProt P19235 25-250)
T1 construct: Bought recombinant protein; also called EPO R; EPO R/Fc
T1 sequence (looked up): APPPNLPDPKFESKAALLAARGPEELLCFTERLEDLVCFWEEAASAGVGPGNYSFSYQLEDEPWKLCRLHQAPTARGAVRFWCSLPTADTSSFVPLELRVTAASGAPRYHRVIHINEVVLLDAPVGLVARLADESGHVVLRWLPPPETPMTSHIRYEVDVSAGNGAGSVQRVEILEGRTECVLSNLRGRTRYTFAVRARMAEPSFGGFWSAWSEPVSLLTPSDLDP
Experiment: ECL multispot (MSD) binding assay, antigen spotted on plate;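 note: purified Fab incubated 1 h at 20 °C on antigen spots, detected with TAG-labelled antibody, electrochemiluminescence compared with each well's blank, signal-to-blank ratio ≥4 counted as hit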
Respond using a number only.

[
  {
    "binder": "Fab VH1-46_IGHD6-6*01_IGHJ1*01 S102A/S103P/S104F/H111F (APFF) & L6_IGKJ1*01 S31V (Fab, V domains shown, Tested as Fab (CH1 with His6/Flag tags, kappa CL) made in E. coli; also called APFF / S31V) VH: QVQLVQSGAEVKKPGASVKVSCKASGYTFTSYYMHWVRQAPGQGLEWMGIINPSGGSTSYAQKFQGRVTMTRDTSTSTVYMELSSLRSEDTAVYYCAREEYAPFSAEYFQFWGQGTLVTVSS VL: EIVLTQSPATLSLSPGERATLSCRASQSVSVYLAWYQQKPGQAPRLLIYDASNRATGIPARFSGSGSGTDFTLTISSLEPEDFAVYYCQQRSNWPPWTFGQGTKVEIKR",
    "ECL signal": 509
  },
  {
    "binder": "Fab VH1-46_IGHD6-6*01_IGHJ1*01 S102A/S103P/S104F/H111F (APFF) & L6_IGKJ1*01 S31M (Fab, V domains shown, Tested as Fab (CH1 with His6/Flag tags, kappa CL) made in E. coli; also called APFF / S31M) VH: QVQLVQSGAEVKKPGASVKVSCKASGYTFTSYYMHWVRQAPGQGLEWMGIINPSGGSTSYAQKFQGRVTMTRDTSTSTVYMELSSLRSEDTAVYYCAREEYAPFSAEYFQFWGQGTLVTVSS VL: EIVLTQSPATLSLSPGERATLSCRASQSVSMYLAWYQQKPGQAPRLLIYDASNRATGIPARFSGSGSGTDFTLTISSLEPEDFAVYYCQQRSNWPPWTFGQGTKVEIKR",
    "ECL signal": 573
  }
]

Return reported ECL signal; argument: Fab VH1-46_IGHD6-6*01_IGHJ1*01 S102A/S103P/S104F/H111F (APFF) & L6_IGKJ1*01 S31F (Fab, V domains shown, Tested as Fab (CH1 with His6/Flag tags, kappa CL) made in E. coli; also called APFF / S31F) VH: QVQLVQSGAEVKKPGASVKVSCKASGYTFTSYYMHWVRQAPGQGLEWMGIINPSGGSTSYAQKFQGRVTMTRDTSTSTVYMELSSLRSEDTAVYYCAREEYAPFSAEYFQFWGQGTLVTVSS VL: EIVLTQSPATLSLSPGERATLSCRASQSVSFYLAWYQQKPGQAPRLLIYDASNRATGIPARFSGSGSGTDFTLTISSLEPEDFAVYYCQQRSNWPPWTFGQGTKVEIKR 599

Return reported ECL signal; argument: Fab VH1-46_IGHD6-6*01_IGHJ1*01 S102A/S103P/S104F/H111F (APFF) & L6_IGKJ1*01 S31P (Fab, V domains shown, Tested as Fab (CH1 with His6/Flag tags, kappa CL) made in E. coli; also called APFF / S31P) VH: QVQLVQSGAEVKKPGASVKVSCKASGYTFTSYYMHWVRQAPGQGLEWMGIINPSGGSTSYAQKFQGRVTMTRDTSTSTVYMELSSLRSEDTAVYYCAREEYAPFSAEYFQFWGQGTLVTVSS VL: EIVLTQSPATLSLSPGERATLSCRASQSVSPYLAWYQQKPGQAPRLLIYDASNRATGIPARFSGSGSGTDFTLTISSLEPEDFAVYYCQQRSNWPPWTFGQGTKVEIKR 594
